# METHOD SUMMARY: Liver microsome stability, human
# Format: in vitro ADME
# RUN CONDITIONS: pooled human liver microsomes (50 donors), 1 μM compound, 0.5 mg/ml microsomes, 37° C., read-out: % recovery Human Liver Microsomes (HLM) (30 min)
Counter-ions that a name gives are not always drawn.
REPORTED PROPERTY: recovery at 30 min, 1 μM (%)

Completed entries (count: 5):
[[record]]
compound = "COc1cc2c(cc1-c1c(C)noc1C)ncc1nc(C3CCC(F)(F)CC3)n([C@H](C)COC(F)F)c12 [2(h)]"
unit_tag = "%"
result_value = 62.3

[[record]]
compound = "COc1cc2c(cc1-c1c(C)noc1C)ncc1nc(C3CCCC3)n([C@H](C)COC(F)F)c12 [2(k)]"
unit_tag = "%"
result_value = 0.1

[[record]]
compound = "COc1cc2c(cc1-c1c(C)noc1C)ncc1nc(C3CCCCC3)n([C@H](C)COC(F)F)c12 [2(j)]"
unit_tag = "%"
result_value = 1.5

[[record]]
compound = "COc1cc2c(cc1-c1c(C)noc1C)ncc1nc(CN3CC(F)(F)C3)n([C@H](C)COC(F)F)c12 [3(j)]"
unit_tag = "%"
result_value = 6.9

[[record]]
compound = "COc1cc2c(cc1-c1c(C)noc1C)ncc1nc(C3CC3)n([C@H](C)COC(F)F)c12.Cl [2(l), hydrochloride]"
unit_tag = "%"
result_value = 43.6


1 = CNCc1nc2cnc3cc(-c4c(C)noc4C)c(OC)cc3c2n1[C@H](C)COC(F)F [3(g)]
2 = COc1cc2c(cc1-c1c(C)noc1C)ncc1nc(CN3CCOCC3)n([C@H](C)COC(F)F)c12 [3(a), trihydrochloride]
3 = COc1cc2c(cc1-c1c(C)noc1C)ncc1nc(CN3CCC(F)(F)C3)n([C@H](C)COC(F)F)c12 [3(i)]
4 = COc1cc2c(cc1-c1c(C)noc1C)ncc1nc(CN3CCC(F)(F)CC3)n([C@H](C)COC(F)F)c12 [3(f)]
5 = COc1cc2c(cc1-c1c(C)noc1C)ncc1nc(CN(C)C)n([C@H](C)COC(F)F)c12 [3(b)]
Arrange the 5 entries by recovery at 30 min, 1 μM so the values rise. Ranked list of labels, please, in the requested order.
4, 2, 3, 5, 1
(4: 0.6%, 2: 1.9%, 3: 7.4%, 5: 13.7%, 1: 58.5%)
